Test system: methicillin-resistant S. aureus clinical isolate SA 3202
TEST_DETAILS: In vitro antibacterial susceptibility testing, broth dilution micro-method (MIC)
REPORTED_CONDITIONS: Staphylococcus aureus, MRSA, 24 h, read-out: MIC MRSA 3202, clinical isolate MRSA 3202, 37 °C, MH broth
We label by threshold. Values of MIC strictly beneath 800 µM are Met. Values of 800 µM and up are Not met.

>>> print(df.to_string())
                                   compound  class_label
0  COc1ccccc1NC(=O)c1cc2ccccc2cc1O [Compound 3a]          Met
1  O=C(Nc1ccccc1)c1cc2ccccc2cc1O [Compound 2]      Not met
2  COc1cccc(NC(=O)c2cc3ccccc3cc2O)c1 [Compound 3b]      Not met
3  CCCCOc1cccc(NC(=O)c2cc3ccccc3cc2O)c1 [Compound 6b]          Met
4  COc1ccc(NC(=O)c2cc3ccccc3cc2O)cc1 [Compound 3c]      Not met
5  CCCCOc1ccccc1NC(=O)c1cc2ccccc2cc1O [Compound 6a]          Met
6  CCOc1cccc(NC(=O)c2cc3ccccc3cc2O)c1 [Compound 4b]      Not met
